Origin of measurements: the supplement of paper PMC10567573

Each entry below carries its recorded protein stability index.
test name: protein stability index of a GFP-peptide fusion (GPS, HEK-293T) (PSI 1-6); higher = more stable;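 further: 24-mer peptide tiles fused after GFP, lentivirally expressed, FACS-sorted into six equal bins by GFP/DsRed ratio, decoded by Illumina sequencing, PSI is the read-weighted mean bin number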
experimental context: treatment: DMSO; c terminus: a fixed tail appended

Completed entries (count: 6):
{"residue string": "CGDGNTETHRAPDLVQWTRHMEAV [SOAT2]", "value observed": 3.55}
{"residue string": "GPDNLVLLNPEKYKAKSRSPGSPV [ADD1]", "value observed": 4.47}
{"residue string": "KTCSRVDHCAQQDHGCEQLCLNTE [MATN2]", "value observed": 4.77}
{"residue string": "LVLYPTSLAIFSEELDGLCFKGEL [PLEKHN1]", "value observed": 2.88}
{"residue string": "CTLGDPNKLPEGVPQPARMPYISD [KLHL20]", "value observed": 4.13}
{"residue string": "QQVDTNISVILPTVHEVDIFRCFC [DENND6A]", "value observed": 1.98}

[Q] Form field: reported protein stability index of GENAGSLTHIEAQNKIRACGERLS [PDLIM7]
[A] 4.57

[Q] Now give it for QLKIAANPFAKGFRENGRNCKRER [TBX6] too.
[A] 3.33

[Q] Quick one: LNSEQAEQLERINDALSCEYECRR [FAM98B]
[A] 4.54

[Q] Follow-up entry: PSTTERISTSGQAGTSSHGCWAWP [PXN]
[A] 3.04

[Q] What do you get for EQPVPPTPATPEDPAPLWGPPPAQ [EMID1] ?
[A] 4.92

[Q] Follow-up entry: DQLTQIMRTGQNTWESKNILAVSF [PCMTD1]
[A] 2.21

[Q] And then RSSALWSEMLDITMKESLTTREIR [NET1] , what is it?
[A] 3.13

====

Form field: protein stability index (one value per entry).
test name: protein stability index of a GFP-peptide fusion (GPS, HEK-293T) (PSI 1-6); higher = more stable
experimental context: treatment: MLN4924 1 uM, 8 h; c terminus: a fixed tail appended
// keep it numeric: no unit symbol after the value

Example results:
{"residue string": "NTPMEETVRAMTHVINQGMAMYWG [KCNAB2]", "protein stability index": 3.13}
{"residue string": "HNISHMSMDIARGLMVTCGTDRIV [WDFY1]", "protein stability index": 2.27}
{"residue string": "KIVLCAVSHVFMLLFNVKSPTDIQ [RHOBTB3]", "protein stability index": 3.09}
{"residue string": "GMGGIQNEKETMQSLNDRLASYLD [KRT18]", "protein stability index": 3.84}
{"residue string": "MGQKLSGSLKSVEVREPALRPAKR [SPSB4]", "protein stability index": 4.62}
{"residue string": "WFLNALHSALGGTKKKKKTIVTDV [USP39]", "protein stability index": 2.19}
{"residue string": "VACFLTRGDLWISWEEGMKVFEEL [CRY1]", "protein stability index": 2.33}
{"residue string": "YLSPLERKRLAREMQLSEVQIKTW [VENTX]", "protein stability index": 2.7}
{"residue string": "SCAPSASIPKLKLTRPVPAGADLP [PWWP2B]", "protein stability index": 3.35}
{"residue string": "EAAMAIASLNGYRLGERVLQVSFK [ELAVL3]", "protein stability index": 2.27}

[Q] I would be grateful if you could share the reported protein stability index for GGRFRCPSCRHEVVLDRHGVYGLQ [TRIM55] .
[A] 2.36

[Q] How about FPLKPMVHRKSCSTGEAGTDGDHN [ZC2HC1C] ?
[A] 4.38

[Q] # repeat for EAELELLRQFDLAWQYGPCTGITR [POLD4]
[A] 2.67

====

test name: protein stability index of a GFP-peptide fusion (GPS, HEK-293T) (PSI 1-6); higher = more stable
experimental context: treatment: MLN4924 1 uM, 8 h; c terminus: a fixed tail appended
readout kind: protein stability index

{"residue string": "TQLKIENNPFAKGFRGSDDMELHR [TBX5]", "protein stability index": 4.02}
{"residue string": "LEDVERELDGPKQIFFGRRKDMIA [ZNF396]", "protein stability index": 4}

[Q] Sample SRELEPELRRRRYEYDHWDAAIHG [ALKBH7] — what was its protein stability index?
[A] 3.92

====

Below is a list of entries, each paired with its recorded protein stability index value.
test name: protein stability index of a GFP-peptide fusion (GPS, HEK-293T) (PSI 1-6); higher = more stable
experimental context: treatment: MLN4924 1 uM, 8 h; c terminus: a fixed tail appended

Examples with their reported protein stability index follow.
{"residue string": "GPPPGAPHTPQTPGQGGPASTPAQ [NR2F2]", "protein stability index": 5.34}
{"residue string": "SWGWDLGRSRLYHDGKNQPGVAYP [SPSB4]", "protein stability index": 2.56}
{"residue string": "SYDCTVKLWDPVDGSVVRDFEHRP [WDR88]", "protein stability index": 3.62}
{"residue string": "HLSRQKIDPLLYMTEWFMCAFSRT [TBC1D10A]", "protein stability index": 2.67}

From here, focus on the item given below.
[Q] Entry MVGQKDSVILSVKFSPFGQWWASV [TLE6] has what protein stability index?
[A] 2.89

====

test name: protein stability index of a GFP-peptide fusion (GPS, HEK-293T) (PSI 1-6); higher = more stable
experimental context: treatment: MLN4924 1 uM, 8 h; c terminus: a fixed tail appended
Catalogue of sequences with associated protein stability index
Give the value as a plain number.

{"residue string": "AVQQVQRLPFLSSSNLSLDVLRGN [POMP]", "value observed": 2.98}
{"residue string": "WTLEDEIHSPAHPEIEKADDHLQQ [ZNF649]", "value observed": 5.26}

[Q] Can you share its protein stability index? I mean this sequence: AVDAGDPAVEACENRRKVLYQRAP [TCF25]
[A] 5.02

[Q] Please give the result for MLQIPQEKSQAYPRRRRPGCYAYR [MYORG] too.
[A] 3.23

[Q] Thanks! And HVQNQVDEVIDVMQENITKVIERG [VAMP4] ?
[A] 4.13

====

test name: protein stability index of a GFP-peptide fusion (GPS, HEK-293T) (PSI 1-6); higher = more stable
experimental context: treatment: DMSO; c terminus: a fixed tail appended
protein stability index reference
Give the figure only, with no unit attached.

Use the examples below as a reference point.
{"residue string": "LGDKGLSDTPYDSSASYEKENEMM [IKZF1]", "value observed": 5.37}
{"residue string": "LLNTLSLAFVGGLPLAYQQTSAFA [TMEM175]", "value observed": 3.2}
{"residue string": "SRELEPELRRRRYEYDHWDAAIHG [ALKBH7]", "value observed": 3.87}
{"residue string": "QRLLFSGASDNSIIMWDIGGRKGR [WDFY1]", "value observed": 3.16}
{"residue string": "LEDVERELDGPKQIFFGRRKDMIA [ZNF396]", "value observed": 3.98}

Next sequence, please.
[Q] Please look up its protein stability index: SFALYLAGFCMFVLSLVKKHYRLQ [CDS1]
[A] 2.25

====

test name: protein stability index of a GFP-peptide fusion (GPS, HEK-293T) (PSI 1-6); higher = more stable
experimental context: treatment: DMSO; c terminus: a fixed tail appended
Kindly note that classification relies on protein stability index with these boundaries: band A: < 3; band B: ≥ 3 and < 4; band C: ≥ 4

{"residue string": "FPNWAMALLITLIVVATLPIPVVF [SLC6A17]", "class": "band B"}
{"residue string": "LQHGDQLSICFTCFKAAFLDFKDL [TEX19]", "class": "band A"}
{"residue string": "GVWAVIISHQQCWASTSPGTDLPL [TRIM15]", "class": "band A"}
{"residue string": "PSSFPSSSSSSSSSCYPLIPSTPE [MAGEA10]", "class": "band C"}
{"residue string": "KRANAAFLIGAYAVIYLKKTPEEA [CDC14A]", "class": "band A"}

[Q] Using the reported protein stability index, which band applies to TAFCTHVFPETAFIAVTSYQNHKI [TBX5] ?
[A] band A

[Q] Same for QIFFGRRKDMIAEKLAPSEITEEL [ZNF396]
[A] band B

[Q] Try the sequence YEIRVKTNLPIFKLKESTVRRRYS [SNX3]
[A] band A

[Q] Moving on to ELMAELEELEQEELNKKMTNIRLP [CHMP4C]
[A] band B

[Q] How about EHIKSLLIKNNSLPRKRQSLRSSS [INTS3] ?
[A] band B

====

Listed here: items and their measured protein stability index.
test name: protein stability index of a GFP-peptide fusion (GPS, HEK-293T) (PSI 1-6); higher = more stable
experimental context: treatment: MLN4924 1 uM, 8 h; c terminus: a fixed tail appended

These solved cases illustrate the format of a correct answer.
{"residue string": "TVEERQTGMWWRHLVAGGGAGAVS [SLC25A25]", "protein stability index": 2.96}
{"residue string": "KKMSCQQFIANLDQLNDGQDFAKD [PSD2]", "protein stability index": 4.4}
{"residue string": "FGIEIEVTDINDNAPKFQAENLDV [PCDHGA10]", "protein stability index": 3.98}

[Q] Can you share its protein stability index? I mean this sequence: LGKIFDLIGLPPEDDWPRDVSLPR [CDK4]
[A] 2.42

[Q] Another sequence to look at: LGALHTSSKPTALPSASSAYFPGQ [SASS6]
[A] 3.67

[Q] What would you report for REPPQAVSIKEAAGSSNLPAPERT [VENTX] ?
[A] 5.2

[Q] Same thing, different sequence: KCGNCQTKLHDIDGVPHLILIASR [KMT5A]
[A] 2.51

[Q] Further, for GAEDGDRAILYPCHGMSSQLVRYS [GALNT9] ?
[A] 3.16
